# System: Listeria innocua 166
# Experiment: Experiment 3: detecting an esterase activity in liquid medium (API-type strips)
# Type: cell-based
# Parameters: key: —: the symbol “-” corresponds to the absence of color or intensity; 0 corresponds to no activity; 0.1 corresponds to a trace of color; 0.5 corresponds to very pale coloration; 1 corresponds to clear but low-intensity coloration; 1.5 corresponds to a degree of coloration intermediate between scores 1 and 2; 2 corresponds to clear coloration of moderate intensity; 2.5 corresponds to a degree of coloration intermediate between scores 2 and 3; 3 corresponds to intense coloration; 3.5 corresponds to a degree of coloration intermediate between scores 3 and 4; 4 corresponds to very intense coloration
# Conditions used: IT 4 h, 37° C.
// reported I (intensity of the color) per item
Just the number, please, no unit after it.

• CC(=O)Oc1c[nH]c2ccccc12 [Y-C2, 3-Indolyl acetate] = 3
• CC(=O)Oc1c[nH]c2ccc(Br)c(Cl)c12 [X-C2, 5-Bromo-4-chloro-3-indolyl acetate] = 3

Consider the record given below.
Query: Request body: readout I (intensity of the color), system Listeria innocua 166, query CCCC(=O)Oc1c[nH]c2ccc(Br)c(Cl)c12 [X-C4, 5-Bromo-4-chloro-3-indolyl butyrate] . Return the value.
Result: 0.5

====

# Test system: Listeria monocytogenes 092
# Experiment: Experiment 3: detecting an esterase activity in liquid medium (API-type strips)
# Assay type: cell-based
# Parameters: key: —: the symbol “-” corresponds to the absence of color or intensity; 0 corresponds to no activity; 0.1 corresponds to a trace of color; 0.5 corresponds to very pale coloration; 1 corresponds to clear but low-intensity coloration; 1.5 corresponds to a degree of coloration intermediate between scores 1 and 2; 2 corresponds to clear coloration of moderate intensity; 2.5 corresponds to a degree of coloration intermediate between scores 2 and 3; 3 corresponds to intense coloration; 3.5 corresponds to a degree of coloration intermediate between scores 3 and 4; 4 corresponds to very intense coloration
# Conditions used: IT 8 h, 37° C.
Quantity measured: I (intensity of the color)

Solved entries (count: 5):
- CCCCCCCC(=O)Oc1c[nH]c2ccc(Br)c(Cl)c12 [X-C8, 5-Bromo-4-chloro-3-indolyl octanoate]: 1.5
- CCCC(=O)Oc1c[nH]c2ccc(Br)c(Cl)c12 [X-C4, 5-Bromo-4-chloro-3-indolyl butyrate]: 3
- CCCCCCCC(=O)Oc1c[nH]c2cc(Cl)ccc12 [Pink-C8, 6-Chloro-3-indolyl octanoate]: —
- CC(=O)Oc1c[nH]c2ccc(Br)c(Cl)c12 [X-C2, 5-Bromo-4-chloro-3-indolyl acetate]: 4
- CCCCCCCC(=O)Oc1c[nH]c2cc(Cl)c(Br)cc12 [Magenta-C8, 5-Bromo-6-chloro-3-indolyl octanoate]: 0.5

Consider the record given below.
Query: Find the recorded I (intensity of the color) belonging to CC(=O)Oc1c[nH]c2ccccc12 [Y-C2, 3-Indolyl acetate] and report it.
Result: 4

====

# Tested on: Listeria innocua 166
# Experiment: Experiment 2: octanoate esterase substrates with different Indoxyl-based chromogenic markers
# Format: cell-based
# Conditions used: IT 48 h, 37° C., substrate 250 mg/l
Quantity measured: C (color of the colonies)

• CCCCCCCC(=O)Oc1c[nH]c2cc(Cl)ccc12 [Pink-C8, 6-Chloro-3-indolyl octanoate] = pink
• CCCCCCCC(=O)Oc1c[nH]c2ccc(Br)cc12 [Blue-C8, 5-Bromo-3-indolyl octanoate] = gray

====

# System: Listeria monocytogenes ATCC 19117
# Experiment: Experiment 2: octanoate esterase substrates with different Indoxyl-based chromogenic markers
# Type: cell-based
# Parameters: key: —: the symbol “-” corresponds to the absence of color or intensity; 0 corresponds to no activity; 0.1 corresponds to a trace of color; 0.5 corresponds to very pale coloration; 1 corresponds to clear but low-intensity coloration; 1.5 corresponds to a degree of coloration intermediate between scores 1 and 2; 2 corresponds to clear coloration of moderate intensity; 2.5 corresponds to a degree of coloration intermediate between scores 2 and 3; 3 corresponds to intense coloration; 3.5 corresponds to a degree of coloration intermediate between scores 3 and 4; 4 corresponds to very intense coloration
# Conditions used: IT 24 h, 37° C., substrate 250 mg/l
Quantity measured: I (intensity of the color)
Just the number, please, no unit after it.

Solved entries (count: 3):
- CCCCCCCC(=O)Oc1c[nH]c2cc(Cl)ccc12 [Pink-C8, 6-Chloro-3-indolyl octanoate]: 0.5
- CCCCCCCC(=O)Oc1c[nH]c2ccc(Br)c(Cl)c12 [X-C8, 5-Bromo-4-chloro-3-indolyl octanoate]: 2
- CCCCCCCC(=O)Oc1c[nH]c2ccc(Br)cc12 [Blue-C8, 5-Bromo-3-indolyl octanoate]: 1

Query: Request body: readout I (intensity of the color), system Listeria monocytogenes ATCC 19117, query CCCCCCCC(=O)Oc1c[nH]c2cc(Cl)c(Br)cc12 [Magenta-C8, 5-Bromo-6-chloro-3-indolyl octanoate] . Return the value.
Result: 1.5
